# Study target: UniProt:P05121
# Test method notes: PAI-1 inhibition in the S2251 chromogenic substrate assay (PAI functional assay)
# Format: biochemical
# Run conditions: 20 μM; Table 1, second part; read-out: INHIBITION OF PAI-1 (degree of inhibition)
Measured attribute: inhibition at 20 µM (%)

1) COc1cc2c(cc1OC)CN(CCc1ccc(NC(=O)c3ccc(/C=c4\[nH]c(=O)/c(=C/c5ccc([N+](=O)[O-])cc5)[nH]c4=O)cc3)cc1)CC2 [Compound 5402] ... 37
2) CN(C)CCCOc1ccc(/C=c2\[nH]c(=O)/c(=C/c3ccc(-n4ccnc4)cc3)[nH]c2=O)cc1 [Compound 5030] ... 6
3) CN(C)CCCOc1ccc(/C=c2\[nH]c(=O)/c(=C/c3ccc(Cn4ccnc4)cc3)[nH]c2=O)cc1 [Compound 5026] ... 10
4) CN(C)CC(=O)NCc1ccc(/C=c2\[nH]c(=O)/c(=C/c3ccccc3Br)[nH]c2=O)cc1 [Compound 5079] ... 14
5) CN(C)CCCOc1ccc(/C=c2\[nH]c(=O)/c(=C/c3ccoc3)[nH]c2=O)cc1 [Compound 5052] ... 86
6) CC(=O)Nc1ccc(/C=c2\[nH]c(=O)/c(=C/c3ccc(OCCCN(C)C)cc3)[nH]c2=O)cc1 [Compound 5048] ... 11
7) CN(C)CCCCCCOc1ccc(/C=c2\[nH]c(=O)/c(=C/c3ccccc3)[nH]c2=O)s1 [Compound 5389] ... 55

----------
# Study target: PAI-1 (Homo sapiens, UniProt P05121)
# Sequence (P05121 24-402): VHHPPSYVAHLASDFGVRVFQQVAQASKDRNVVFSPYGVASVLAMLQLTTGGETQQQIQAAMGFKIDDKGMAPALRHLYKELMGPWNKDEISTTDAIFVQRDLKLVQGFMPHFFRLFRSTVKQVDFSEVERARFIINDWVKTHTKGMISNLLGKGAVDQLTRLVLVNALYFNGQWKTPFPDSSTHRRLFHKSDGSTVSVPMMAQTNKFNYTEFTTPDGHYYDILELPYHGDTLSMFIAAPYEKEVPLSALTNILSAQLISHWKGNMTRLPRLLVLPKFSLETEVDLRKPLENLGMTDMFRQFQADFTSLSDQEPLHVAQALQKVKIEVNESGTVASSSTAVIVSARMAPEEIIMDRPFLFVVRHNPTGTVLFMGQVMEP
# Test method notes: PAI-1 inhibition in the S2251 chromogenic substrate assay (PAI functional assay)
# Type: biochemical
# Run conditions: 100 μM; Table 1, second part; read-out: INHIBITION OF PAI-1 (degree of inhibition)
Measured attribute: inhibition at 100 µM (%)

1. CN(C)CCCOc1ccc(/C=c2\[nH]c(=O)/c(=C/c3cccnc3)[nH]c2=O)cc1 ... 11
2. O=c1[nH]/c(=C\c2ccc(OCCN3CCOCC3)cc2)c(=O)[nH]/c1=C\c1ccccc1 ... 5
3. CN(C)CCCOc1ccc(/C=c2\[nH]c(=O)/c(=C/c3ccsc3)[nH]c2=O)cc1 ... 77
4. CSc1ccc(/C=c2\[nH]c(=O)/c(=C/c3ccc(OCCN(C)C)cc3)[nH]c2=O)s1 ... 60

----------
Listed molecules paired with reported INHIBITION OF PAI-1 (degree of inhibition)
# Study target: PAI-1 (Homo sapiens, UniProt P05121)
# Test method notes: PAI-1 inhibition in the S2251 chromogenic substrate assay (PAI functional assay)
# Assay type: biochemical
# Run conditions: 12.5 μm; Table 1, first part; unit assumed
Measured attribute: INHIBITION OF PAI-1 (degree of inhibition) (%)

1) COc1ccc(/C=c2\[nH]c(=O)/c(=C/c3cn(C(=O)OC(C)(C)C)c4ccccc34)[nH]c2=O)cc1 [Compound 1506] ... 4
2) CC(C)(C)OC(=O)n1cc(/C=c2\[nH]c(=O)/c(=C/c3cccs3)[nH]c2=O)c2ccccc21 [Compound 1618] ... 1
3) CC(=O)Nc1ccc(/C=c2\[nH]c(=O)/c(=C/C3CCCCC3)[nH]c2=O)cc1 [Compound 1672] ... 4
4) CC(C)(C)OC(=O)n1cc(/C=c2\[nH]c(=O)/c(=C/c3c(Cl)cccc3Cl)[nH]c2=O)c2ccccc21 [Compound 1560] ... 34
5) COc1ccc(/C=c2\[nH]c(=O)/c(=C/c3cc4ccccc4[nH]3)[nH]c2=O)cc1 [Compound 1718] ... 0
6) O=c1[nH]/c(=C\c2c[nH]c3ccccc23)c(=O)[nH]/c1=C\c1ccccc1 [Compound 1509] ... 1
7) O=c1[nH]/c(=C\c2ccccc2)c(=O)[nH]/c1=C\C=Cc1ccc([N+](=O)[O-])cc1 [Compound 1923] ... 12
